Value source: ChEMBL document CHEMBL1142794

- Test system: Mycobacterium tuberculosis variant bovis
- assaySummary: In vitro minimum inhibitory concentration dissolved in DMSO against Mycobacterium bovis BCG using BACTEC 460 radiometric system
- Assay type: functional
measurementName: MIC99

Consider the reported MIC99 for these molecules:
1) C=C1C(=O)O[C@@H](CCCCCCCC)[C@@H]1C(=O)NCc1ccccc1    25 µg/mL
2) C=CCNC(=O)[C@@H]1C(=C)C(=O)O[C@H]1CCCCCC    12.5 µg/mL
3) C=C1C(=O)O[C@@H](CCCCCCCC)C1C(=O)O (stereo partly drawn)    > 25 µg/mL
4) C=C1C(=O)O[C@@H](CCCCCCCC)[C@@H]1C(=O)NCC(=O)O    > 25 µg/mL
5) C=C1C(=O)O[C@@H](CCCCCCCC)[C@@H]1C(=O)NCC(=O)OC    25 µg/mL

Q: Can you share its MIC99? I mean this molecule: CCCC[C@@H]1OC(=O)C(=O)C1C(=O)OC (stereo partly drawn)
A: > 25 µg/mL

Q: Can you share its MIC99? I mean this molecule: CCCCCCCC[C@@H]1OC(=O)C(=O)C1C(=O)OC (stereo partly drawn)
A: > 25 µg/mL

Q: Can you share its MIC99? I mean this molecule: `C=CCNC(=O)[C@@H]1C(=C)C(=O)O[C@H]1CCCCCCCC`
A: 12.5 µg/mL

Q: Can you share its MIC99? I mean this molecule: `C=CCNC(=O)[C@H]1[C@H](CCCCCCCC)OC(=O)[C@@H]1C`
A: > 25 µg/mL

Q: Can you share its MIC99? I mean this molecule: `NNC(=O)c1ccncc1`
A: 0.1 µg/mL
